For each of the binders below, state its Kd.
molecular target: DN-IV quality control recombinant protein (produced by the company) (dengue virus); assay: BLI, antibody on AMC sensor

>>> obs_value("Mutation 1-51 (antibody, V domains shown) VH: EVQLQQPGPELVKPGASVKMSCKASGYTFTSTVIHWVRQKPGQGLEWIGYMNPYNDGLKYNEKFIGKAILTSDKSSSTAYMQLSSLTSEDSAVYYCTREGLFYVMDYWGQGTSVTVSS VL: QIVLTQSPAIMSASPGEKVTMTCSATSSISYMHWYQQKSGTSPKRWIYDSSKLASGVPVRFSGSGSGTSYSLTISSMEAEDAATYFCQWWRSDLPTFGAGTKLELKR")
"0.5 nM"

Asked: Recall and state the measured Kd for Mutation 1-24 (antibody, V domains shown) VH: EVQLQQPGPELVKPGASVKMSCKASGYTFTSTVIHWVRQKPGQGLEWIGYMNPYNDGIKYNEKFIGKAILTSDKSSSTAYMQLSSLTSEDSAVYYCTREGLFYVMDYWGQGTSVTVSS VL: QIVLTQSPAIMSASPGEKVTMTCSATSSVSYMHWYQQKSGTSPKRWIYDTSKLASGVPVRFSGSGSGTSYSLTISSMEAEDAATYFCQYWRSDLPTFGAGTKLELKR .
Given back: 2.85 nM
